- Test system: CP297
- assay_explanation: qHTS profiling for inhibitors of Plasmodium falciparum proliferation (AID 504749); note: nearly all actives have a fitted effect of over 60% in size
- cond: P. falciparum in erythrocytes, SYBR Green DNA, 72 h; series mostly up to 28.7 µM
Records with an inconclusive call do not appear. Active and inactive are the calls of the source. Calls come from the whole dose curve; as a rule, active = well fitted inhibition curve with a large enough effect; inconclusive = small, poorly fitted or top-dose-only effect; inactive = flat fitted curve, though single readings scatter.
Pick one and only one: active, inactive

Dear all, I need the recorded test outcome for CC[N+](C)(C)c1cccc(O)c1 , thank you.
inactive

Please indicate how the test categorized COc1cc2c(cc1OC)-c1cc(=Nc3c(C)cc(C)cc3C)n(C)c(=O)n1CC2 .
active

I'd appreciate the recorded outcome for C#CCN(C)CCCOc1ccc(Cl)cc1Cl from this test.
inactive

For this compound, state the assay outcome: CC(=O)Oc1cc(C(C)C)c(OCCN(C)C)cc1C
inactive

Could you please tell me the result logged for Cc1ccc(=O)n(-c2ccccc2)c1 in this assay?
inactive

Name the outcome recorded for CCN1CCc2nc(N)oc2CC1 in the assay.
inactive

Called result for CC(C)NNC(=O)c1ccncc1
inactive

Which outcome was assigned to CN(C)CCCN1c2ccccc2Sc2ccccc21 in this test?
inactive

Hi, sorry to bother you, what did the test record for CN(C)CCN(Cc1cccs1)c1ccccn1 ?
active

Look up the recorded call for CNCCC(Oc1ccccc1OC)c1ccccc1 (stereo not given) in this test.
inactive

----------
- assay_explanation: Primary qHTS for small molecule stabilizers of the endoplasmic reticulum resident proteome: Secreted ER Calcium Modulated Protein (SERCaMP) assay (AID 1508630)
- cond: SH-SY5Y GLuc-SERCaMP (Gaussia luciferase released on ER calcium loss) secretion, thapsigargin, luminescence; series mostly up to 38.4 µM
Results filed as inconclusive are left out. Active and inactive are the calls of the source. The call rests on the fitted dose curve; in most records, active means well fitted inhibition curve with a large enough effect; inconclusive means small, poorly fitted or top-dose-only effect; inactive means no such curve, though single readings can be large or run the other way.
value_type: outcome

Param item = NS(=O)(=O)c1cc2c(cc1Cl)NC(C1CC3C=CC1C3)NS2(=O)=O (centres undefined) ; retrieve measured outcome.
inactive

Record request: outcome value, item C[C@]12CCC(=O)C=C1CC[C@@H]1[C@@H]2C(=O)C[C@@]2(C)[C@H]1CC[C@]2(O)C(=O)CO
inactive

# lookup: outcome of COc1ccc([C@@H]2Sc3ccccc3N(CCN(C)C)C(=O)[C@@H]2OC(C)=O)cc1
inactive

Find the recorded outcome belonging to CC(=O)OC(C)C[N+](C)(C)C (centres undefined) and report it.
inactive

----------
- assay_explanation: P-glycoprotein substrates identified in KB-8-5-11 adenocarcinoma cell line, qHTS therapeutic library screen (AID 1346987); note: nearly all actives have a fitted effect of over 65% in size
- cond: KB-8-5-11 (P-gp overexpressing) viability, CellTiter-Glo, 72 h; series mostly up to 44.5 µM
Records with an inconclusive call do not appear. Active and inactive are the calls of the source. Calls follow the shape of the dose curve; as a rule, active = well fitted inhibition curve with a large enough effect; inconclusive = small, poorly fitted or top-dose-only effect; inactive = flat fitted curve, though single readings scatter.
Return exactly one item of active, inactive

Could you please tell me the result logged for O=C(O)CCCCCCCC(=O)O in this assay?
inactive

Recorded call for COc1ccc([C@@H]2Sc3ccccc3N(CCN(C)C)C(=O)[C@@H]2OC(C)=O)cc1 ?
active

Which outcome did this test record for the molecule CC(=O)[C@]1(O)Cc2c(O)c3c(c(O)c2[C@@H](O[C@H]2C[C@H](N)[C@H](O)[C@H](C)O2)C1)C(=O)c1ccccc1C3=O ?
active

Hey, what did the test say about O=c1[nH]c(=O)n([C@H]2C[C@H](O)[C@@H](CO)O2)cc1Br ?
inactive

Each molecule tested received a call. Report the one for NS(=O)(=O)c1cc2c(cc1Cl)NC(C1CC3C=CC1C3)NS2(=O)=O (stereo not given) .
inactive

Look up the recorded call for Nc1ncn([C@@H]2O[C@H](CO)[C@@H](O)[C@H]2O)c(=O)n1 in this test.
active

So what was the verdict on NC1=NCC2c3ccccc3Cc3ccccc3N12 (stereo not given) in this test?
inactive

// return assay outcome for C[C@@H](O)[C@H]1C(=O)N2C(C(=O)O)=C(SCCN=CN)C[C@H]12
inactive

What classification did NC/C=C/C(=O)O end up with in this test?
inactive

What classification did CC(C)(C)c1ccc(C(=O)CCCN2CCC(OC(c3ccccc3)c3ccccc3)CC2)cc1 end up with in this test?
active

----------
- System: AS120
- assay_explanation: qHTS profiling for inhibitors of Plasmodium falciparum proliferation (AID 504749); note: nearly all actives have a fitted effect of over 60% in size
- cond: P. falciparum in erythrocytes, SYBR Green DNA, 72 h; series mostly up to 28.7 µM
Results filed as inconclusive are left out. Activity calls are given as the source filed them. Calls come from the whole dose curve; as a rule, active = well fitted inhibition curve with a large enough effect; inconclusive = small, poorly fitted or top-dose-only effect; inactive = flat fitted curve, though single readings scatter.
Field 'call' accepts active, inactive

Query: recorded result category for CCN1CCc2nc(N)oc2CC1 in this test
inactive

Outcome? NC/C=C/C(=O)O
inactive

What did the test return for CCCN1C[C@H](CSC)C[C@@H]2c3cccc4[nH]cc(c34)C[C@H]21 ?
active

Tell me the recorded outcome of this test for CC(C(=O)O)c1ccc(CC2CCCC2=O)cc1 (stereo unspecified) .
inactive

Query: recorded result category for CC(=O)OCC1=C(C(=O)O)N2C(=O)[C@@H](NC(=O)Cc3cccs3)[C@H]2SC1 in this test
inactive

Hi, sorry to bother you, what did the test record for CN(C)C(=O)Oc1cccc([N+](C)(C)C)c1 ?
inactive

----------
- assay_explanation: Nrf2 qHTS screen for inhibitors: Validation (AID 493153)
- cond: A549 ARE-Fluc reporter, 18-24 h; luciferase luminescence
Results filed as inconclusive are left out. The source made the active and inactive calls. Calls come from the whole dose curve; as a rule, active = well fitted inhibition curve with a large enough effect in the main read-out, with a control signal flat (not every such curve was filed as active); inconclusive = small, poorly fitted or top-dose-only effect, or effect the other way, or a change in a side signal; inactive = no such curve, though single readings can be large or run the other way.
Reply using exactly one outcome from active, inactive

Recorded test outcome, item CN1C[C@H](C(=O)N[C@]2(C)O[C@@]3(O)[C@@H]4CCCN4C(=O)[C@H](Cc4ccccc4)N3C2=O)C[C@@H]2c3cccc4[nH]cc(c34)C[C@H]21
inactive

Entry O=C(CCNNC(=O)c1ccncc1)NCc1ccccc1 : call = ?
inactive

Short answer needed: outcome of this test for O=C(O)CCCCCCCC(=O)O ?
inactive

Name the outcome recorded for CCN(CC)CC(=O)Nc1c(C)cccc1C in the assay.
inactive

Recorded test call requested for CC(C)[N+](C)(CCOC(=O)C1c2ccccc2Oc2ccccc21)C(C)C
inactive

For this molecule, state the assay outcome: CC(C)NNC(=O)c1ccncc1
inactive

Returns: the outcome recorded for C[C@]12C=CC(=O)C=C1CC[C@H]1[C@@H]3C[C@@H](O)[C@](O)(C(=O)CO)[C@@]3(C)C[C@H](O)[C@@]12F in this assay.
active

What is the recorded call for this molecule in the test? C[N+](C)(C)CCCCCCCCCC[N+](C)(C)C
inactive

For CC1=NS(=O)(=O)c2cc(Cl)ccc2N1 , what call appears in the results of this test?
inactive

Could you please tell me the result logged for CCN(CC)CCNC(=O)c1ccc(NC(C)=O)cc1 in this assay?
inactive

Per the assay record, what outcome was assigned to CC[N+](C)(C)c1cccc(O)c1 ?
inactive

----------
- assay_explanation: qHTS of Trypanosoma Brucei Inhibitors: LOPAC Validation (AID 624147); note: 0% is about no effect
- cond: purified enzyme assay, luminescence, 45 min; series mostly up to 57.5 µM
Results filed as inconclusive are left out. Activity calls are given as the source filed them. Calls follow the shape of the dose curve; as a rule, active = well fitted inhibition curve with a large enough effect; inconclusive = small, poorly fitted or top-dose-only effect; inactive = flat fitted curve, though single readings scatter.
value_type: outcome

Which outcome reading was recorded for the molecule CC(=O)[C@]1(O)Cc2c(O)c3c(c(O)c2[C@@H](O[C@H]2C[C@H](N)[C@H](O)[C@H](C)O2)C1)C(=O)c1ccccc1C3=O ?
inactive

Can you share its outcome? I mean this molecule: C[C@@H](O)[C@H]1C(=O)N2C(C(=O)O)=C(SCCN=CN)C[C@H]12
inactive

Bench note: what outcome did COC(=O)C1=C(C)NC(C)=C(C(=O)OCCN(C)Cc2ccccc2)C1c1cccc([N+](=O)[O-])c1 (stereo not drawn) show?
inactive

----------
- Tested on: TAB165
- assay_explanation: qHTS profiling for inhibitors of Plasmodium falciparum proliferation (AID 504749); note: nearly all actives have a fitted effect of over 60% in size
- cond: P. falciparum in erythrocytes, SYBR Green DNA, 72 h; series mostly up to 28.7 µM
Results filed as inconclusive are left out. Calls of active or inactive are those of the source. Calls follow the shape of the dose curve; as a rule, active = well fitted inhibition curve with a large enough effect; inconclusive = small, poorly fitted or top-dose-only effect; inactive = flat fitted curve, though single readings scatter.
In this exercise, the only acceptable responses are true (1) for active, false (0) for inactive

What did this assay record as the result for COc1ccc([C@@H]2Sc3ccccc3N(CCN(C)C)C(=O)[C@@H]2OC(C)=O)cc1 ?
false (0)

Identify the outcome logged in this assay for the compound shown: COCC(=O)O[C@]1(CCN(C)CCCc2nc3ccccc3[nH]2)CCc2cc(F)ccc2[C@@H]1C(C)C
true (1)

Field: outcome | Entry: NC(=O)N1c2ccccc2C=Cc2ccccc21
false (0)

Per the assay record, what outcome was assigned to COC(=O)[C@H]1[C@H]2C[C@@H]3c4[nH]c5cc(OC)ccc5c4CCN3C[C@H]2C[C@@H](OC(=O)c2cc(OC)c(OC)c(OC)c2)[C@@H]1OC ?
true (1)

Hi, sorry to bother you, what did the test record for CCN1CCC[C@H]1CNC(=O)c1c(O)c(Cl)cc(Cl)c1OC ?
false (0)

State the result this test recorded for c1cnc(N2CCN(Cc3ccc4c(c3)OCO4)CC2)nc1 .
false (0)

Given Cc1ccc(=O)n(-c2ccccc2)c1 , state the outcome it received in this test.
false (0)

Please state the recorded outcome for this compound: CCn1cc(C(=O)O)c(=O)c2cc3c(cc21)OCO3
false (0)

In this assay, the call recorded for O=C1NCN(c2ccccc2)C12CCN(CCCC(c1ccc(F)cc1)c1ccc(F)cc1)CC2 was what?
true (1)

Per the assay record, what outcome was assigned to NC1=NCC2c3ccccc3Cc3ccccc3N12 (stereo not given) ?
false (0)
